assay.details: NOVARTIS: Cytotoxicity against human hepatocellular carcinoma cell line (Huh7)
Format: toxicity, cell-based, Huh-7
condition.summary: Huh7 cells (hepatocellular carcinoma cell line)
// reported CC50 per item

Below, each entry is followed by its recorded CC50 result.
Could you share which CC50 value was measured for COc1cc2c(-c3cc(Br)ccc3O)nc3c(c(-c4ccccc4)nn3-c3ccccc3)c2cc1OC ?
> 100 µM

Could you share which CC50 value was measured for CC1CCCN(c2ccc(C(=O)NC3CC3)cc2[N+](=O)[O-])C1 (stereo unspecified) ?
> 100 µM

Could you share which CC50 value was measured for CC(=O)N(C1=C(N(C)C)C(=O)c2ccccc2C1=O)c1ccc(Cl)cc1 ?
5.46 µM

Could you share which CC50 value was measured for COc1cc(-c2nc(-c3cccc(Cl)c3)c(-c3ccccc3)[nH]2)cc(OC)c1O ?
43.2 µM

Could you share which CC50 value was measured for CCc1cccc(NC(=S)N2CCCC2c2ccccc2C(F)(F)F)c1 (stereo unspecified) ?
> 10 µM

Could you share which CC50 value was measured for Cc1nc2c(C#N)c(C)nn2c(C)c1Cc1cccc(F)c1 ?
> 10 µM

Could you share which CC50 value was measured for COc1ccccc1C(NC(=O)c1cc(OC)c(OC)c(OC)c1)c1cc(Cl)c2cccnc2c1O (stereo unspecified) ?
> 100 µM

Could you share which CC50 value was measured for COc1ccc(C=Cc2ccc3ccccc3[n+]2C)cc1OC ?
> 100 µM

Could you share which CC50 value was measured for COc1cccc(-c2nc3c(OC)ccc(OC)c3cc2CNCC(C)(C)CN(C)C)c1 ?
> 10 µM

Could you share which CC50 value was measured for O=C1NC(=O)C(Cc2ccc(S(=O)(=O)N3CCN(c4ccccc4)CC3)cc2)S1 (stereo unspecified) ?
> 100 µM

More entries:
Could you share which CC50 value was measured for C#CC[N+]1(CC#Cc2cccc3ccccc23)CCCCC1 ?
> 100 µM

Could you share which CC50 value was measured for COc1ccc(C=NNc2cc(C)nc3ccc(OC)cc23)c(OC)c1 ?
6.69 µM

Could you share which CC50 value was measured for CCN(CC)CCCC(C)NCc1ccc(OC)c(OCc2ccccc2)c1 (stereo unspecified) ?
> 10 µM

Could you share which CC50 value was measured for Cc1ccc(-c2cn3c([n+]2-c2ccc(C)cc2)CCCCC3)cc1 ?
10.9 µM

Could you share which CC50 value was measured for CCc1ccc(NC(=O)COC(=O)c2cccs2)cc1 ?
> 100 µM

Could you share which CC50 value was measured for Cc1ccc(NC(=O)c2ccc(NCCCN3CCCCCC3)c([N+](=O)[O-])c2)cc1F ?
16.9 µM

Could you share which CC50 value was measured for COC(=O)CNC(c1ccccc1Cl)c1cc(Br)ccc1NS(=O)(=O)c1ccc(C)cc1 (stereo unspecified) ?
> 100 µM

Could you share which CC50 value was measured for Cc1cccc(CSc2nnc(C(Cc3ccccc3)NC(=O)C3CCCCC3)n2-c2ccc(Cl)cc2Cl)c1 (stereo unspecified) ?
> 10 µM

Could you share which CC50 value was measured for C=CCN1C(=O)/C(=C\c2ccccc2)C(C(=O)OC)=C1C ?
> 10 µM

Could you share which CC50 value was measured for Cc1ccc(NC(=O)C2c3ccccc3C(=O)N(CC(C)C)C2c2cccs2)c(Cl)c1 (stereo unspecified) ?
> 100 µM

Could you share which CC50 value was measured for COC(=O)c1ccc(C(=O)Nc2ccc(-c3nc4cc(NC(=O)c5ccc(C(=O)OC)cc5)ccc4[nH]3)cc2)cc1 ?
> 10 µM
